These measurements were taken from ChEMBL document CHEMBL4673358.

# procedure summary: Metabolic stability in mouse hepatocytes assessed as half life
# Format: ADME, cell-based, Hepatocyte
parameter measured: half-life (h)
Report the figure in h without appending any unit label.

What measured half-life goes with C[C@H](C(=O)Nc1ccc(Cl)cc1)[C@H]1CC[C@]2(CC1)COc1cc(C(F)(F)F)ccc12 ?
6.65

----------
# procedure summary: Half life in rat at 10 mg/kg, po
# Format: ADME, organism-based
# applied conditions: in vivo
parameter measured: half-life (h)
Report the figure in h without appending any unit label.

What measured half-life goes with C[C@H](C(=O)Nc1ccc(Cl)cc1)[C@H]1CC[C@]2(CC1)COc1cc(C(F)(F)F)ccc12 ?
49

----------
# procedure summary: Metabolic stability in human hepatocytes assessed as half life
# Format: ADME, cell-based, Hepatocyte
parameter measured: half-life (h)
Report the figure in h without appending any unit label.

What measured half-life goes with C[C@@H](C(=O)Nc1ccc(Cl)cc1)[C@H]1CC[C@@H](c2ccnc3ccc(F)cc32)CC1 ?
2.55

What measured half-life goes with C[C@H](C(=O)Nc1ccc(Cl)cc1)[C@H]1CC[C@]2(CC1)COc1cc(C(F)(F)F)ccc12 ?
2.92

----------
# procedure summary: Plasma protein binding in mouse
# Format: ADME, cell-free
# applied conditions: read-out: PPB (converted)
parameter measured: fraction unbound
Kindly provide the number alone.

What measured fraction unbound goes with C[C@H](C(=O)Nc1ccc(Cl)cc1)[C@H]1CC[C@]2(CC1)COc1cc(C(F)(F)F)ccc12 ?
0.005

----------
# procedure summary: AUC(0 to 24 hrs) in mouse at 10 mg/kg, po
# Type: ADME, organism-based
# Parameters: time < 24 hr, route oral, dose 10 mg/kg
# applied conditions: in vivo
parameter measured: AUC(0-t) at 24 h (µM·h)
Report the figure in µM·h without appending any unit label.

What measured AUC(0-t) at 24 h goes with C[C@@H](C(=O)Nc1ccc(Cl)cc1)[C@H]1CC[C@@H](c2ccnc3ccc(F)cc32)CC1 ?
9.3

----------
# tgt: UniProtKB Q12809
# Sequence (Q12809 whole entry): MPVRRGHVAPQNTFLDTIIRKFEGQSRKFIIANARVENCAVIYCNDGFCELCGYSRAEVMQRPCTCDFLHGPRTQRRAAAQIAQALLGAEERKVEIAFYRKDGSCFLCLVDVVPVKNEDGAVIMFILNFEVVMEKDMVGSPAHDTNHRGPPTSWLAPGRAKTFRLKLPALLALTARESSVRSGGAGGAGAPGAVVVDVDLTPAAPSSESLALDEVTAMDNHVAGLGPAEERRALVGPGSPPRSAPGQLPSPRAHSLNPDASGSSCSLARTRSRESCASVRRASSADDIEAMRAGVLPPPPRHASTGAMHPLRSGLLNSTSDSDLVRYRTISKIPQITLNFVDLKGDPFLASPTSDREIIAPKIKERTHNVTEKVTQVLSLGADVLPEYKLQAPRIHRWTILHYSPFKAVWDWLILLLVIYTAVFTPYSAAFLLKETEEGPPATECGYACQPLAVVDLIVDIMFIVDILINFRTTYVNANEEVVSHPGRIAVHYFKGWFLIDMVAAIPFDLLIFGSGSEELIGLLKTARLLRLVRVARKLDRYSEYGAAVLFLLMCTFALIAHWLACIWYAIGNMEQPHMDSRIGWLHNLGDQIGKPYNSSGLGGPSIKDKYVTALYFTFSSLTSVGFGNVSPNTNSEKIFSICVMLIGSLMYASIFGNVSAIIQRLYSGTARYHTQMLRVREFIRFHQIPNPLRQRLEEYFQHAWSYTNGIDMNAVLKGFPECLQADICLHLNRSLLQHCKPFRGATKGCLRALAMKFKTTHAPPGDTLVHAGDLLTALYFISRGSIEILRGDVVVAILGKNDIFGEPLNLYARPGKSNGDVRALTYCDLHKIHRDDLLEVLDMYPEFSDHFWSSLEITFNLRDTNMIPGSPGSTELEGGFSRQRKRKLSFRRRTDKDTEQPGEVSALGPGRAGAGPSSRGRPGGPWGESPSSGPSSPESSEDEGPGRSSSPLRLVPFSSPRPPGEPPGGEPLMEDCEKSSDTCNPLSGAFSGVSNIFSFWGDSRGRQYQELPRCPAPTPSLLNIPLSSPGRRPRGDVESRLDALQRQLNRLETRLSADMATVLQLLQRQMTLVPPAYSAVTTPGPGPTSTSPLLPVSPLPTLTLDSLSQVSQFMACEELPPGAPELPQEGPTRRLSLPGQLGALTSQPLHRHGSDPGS
# procedure summary: Inhibition of human ERG at 10 uM relative to control
parameter measured: inhibition at 10 µM (%)
Report the figure in % without appending any unit label.

Requested read-out inhibition at 10 µM, target or system UniProtKB Q12809, entry CC[C@@H](C(=O)Nc1ccc(Cl)cc1)N1CCC2(CC1)COc1cc(C(F)(F)F)ccc12 (stereo in doubt)
85

Requested read-out inhibition at 10 µM, target or system UniProtKB Q12809, entry C[C@H](C(=O)Nc1ccc(Cl)cc1)[C@H]1CC[C@]2(CC1)COc1cc(C(F)(F)F)ccc12
67

----------
# tgt: Indoleamine 2,3-dioxygenase 1 (Homo sapiens, UniProt P14902)
# Sequence (P14902 whole entry): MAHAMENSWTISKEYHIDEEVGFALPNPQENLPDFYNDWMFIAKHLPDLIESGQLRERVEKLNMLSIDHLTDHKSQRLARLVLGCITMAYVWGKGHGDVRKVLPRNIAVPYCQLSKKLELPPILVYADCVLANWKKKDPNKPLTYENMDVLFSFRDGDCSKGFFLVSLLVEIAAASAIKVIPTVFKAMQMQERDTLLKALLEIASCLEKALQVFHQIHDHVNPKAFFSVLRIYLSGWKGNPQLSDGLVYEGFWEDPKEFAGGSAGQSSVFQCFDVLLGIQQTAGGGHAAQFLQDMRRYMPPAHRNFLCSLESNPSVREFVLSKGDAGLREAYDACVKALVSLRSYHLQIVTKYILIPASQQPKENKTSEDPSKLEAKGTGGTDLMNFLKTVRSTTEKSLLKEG
# procedure summary: Inhibition of IDO1 in human whole blood
# Type: tissue-based
parameter measured: IC50 (nM)
Report the figure in nM without appending any unit label.

What measured IC50 goes with O=C(Nc1ccc(Cl)cc1)C(=O)N1CCC2(CC1)COc1cc(C(F)(F)F)ccc12 ?
1700

What measured IC50 goes with CC[C@@H](C(=O)Nc1ccc(Cl)cc1)N1CCC2(CC1)COc1cc(C(F)(F)F)ccc12 (stereo in doubt) ?
360

What measured IC50 goes with CCC(C(=O)Nc1ccc(Cl)cc1)N1CCC2(CCOc3cc(C(F)(F)F)ccc32)CC1 (centres undefined) ?
360

What measured IC50 goes with C[C@H](C(=O)Nc1ccc(Cl)cc1)[C@H]1CC[C@]2(CC1)COc1cc(C(F)(F)F)ccc12 ?
52

What measured IC50 goes with O=C(Nc1ccc(Cl)cc1)C(=O)N1CCC(c2ccnc3ccc(F)cc23)CC1 ?
1600

What measured IC50 goes with CC[C@H](C(=O)Nc1ccc(Cl)cn1)[C@H]1CC[C@]2(CC1)COc1cc(C(F)(F)F)ccc12 ?
320

What measured IC50 goes with CC(C(=O)Nc1ccc(Cl)cc1)N1CCC2(CC1)COc1cc(C(F)(F)F)ccc12 (racemic) ?
1320

What measured IC50 goes with C[C@H](C(=O)Nc1ccc(Cl)cc1)[C@H]1CC[C@@]2(CC1)COc1cc(C(F)(F)F)ccc12 ?
51

What measured IC50 goes with O=C(Nc1ccc(Cl)cc1)C(CC1CC1)N1CCC2(CC1)COc1cc(C(F)(F)F)ccc12 (centres undefined) ?
300
